# Tested on: Escherichia coli ATCC 25922
# assay.summary: MIC, broth microdilution (CLSI), reference strain
# particulars: CAMHB
Square brackets hold non-standard residues; d marks the D form. Peptide text beside a SMILES is read from it. * marks the point of attachment. Pro(4,4-F2) = O=C(O)[C@@H]1CC(F)(F)CN1; Dab(3S-OH) = NC[C@H](O)[C@H](N)C(=O)O; ΔZArg = N=C(N)NCC/C=C(\N)C(=O)O; dOrn = NCCC[C@@H](N)C(=O)O; hSer = N[C@@H](CCO)C(=O)O; Dab = NCC[C@H](N)C(=O)O; NH(CH2)4NH2 = NCCCCN*
quantity.name: Ec: MIC Escherichia coli ATCC 25922

{"molecule": "C[C@H](NC(=O)[C@H](CCN)NC(=O)[C@@H](N)CCCCN)C(=O)NCC(=O)N[C@H](CCCN)C(=O)N1CC(F)(F)C[C@H]1C(=O)N[C@@H](Cc1cnc[nH]1)C(=O)N[C@@H](CCCCN)C(=O)N/C(=C\\CCNC(=N)N)C(=O)N[C@@H](CCCCN)C(=O)NCCCCN [14.10] (H-K[Dab]AG[dOrn][Pro(4,4-F2)]HK[ΔZArg]K-{NH(CH2)4NH2})", "measurement.target": "Escherichia coli ATCC 25922", "reported.result": "− (>32 μg/mL)"}
{"molecule": "N=C(N)NCC/C=C(\\NC(=O)[C@H](CCCCN)NC(=O)[C@H](Cc1c[nH]cn1)NC(=O)[C@@H]1CCCN1C(=O)[C@@H](CCCN)NC(=O)CNC(=O)[C@H](CCO)NC(=O)[C@@H](NC(=O)[C@@H](N)CCCCN)[C@@H](O)CN)C(=O)O [225.1] (H-K[Dab(3S-OH)][hSer]G[dOrn]PHK[ΔZArg]-OH)", "measurement.target": "Escherichia coli ATCC 25922", "reported.result": "− (>32 μg/mL)"}

---

Reported IC50 values for the following compounds.
# measurement.target: N-type calcium channels (Cav2.2) (Rattus norvegicus (Rat), UniProt Q02294)
# assay.summary: biochemical
# Assay type: binding
# particulars: class symbol; rat cerebral cortex, [125I]ω-conotoxin GVIA 0.001 nM, 30 minutes at room temperature; read-out: IC50 Cav2.2
Square brackets hold non-standard residues; d marks the D form. Peptide text beside a SMILES is read from it. * marks the point of attachment. Dab(3S-OH) = NC[C@H](O)[C@H](N)C(=O)O; ΔZArg = N=C(N)NCC/C=C(\N)C(=O)O; dOrn = NCCC[C@@H](N)C(=O)O; NH(CH2)4NH2 = NCCCCN*

{"compound": "C[C@H](NC(=O)[C@H](CCCCN)NC(=O)[C@H](Cc1cnc[nH]1)NC(=O)[C@@H]1CCCN1C(=O)[C@@H](CCCN)NC(=O)CNC(=O)[C@@H](NC(=O)[C@@H](NC(=O)[C@@H](N)CCCCN)[C@@H](O)CN)[C@@H](O)CN)C(=O)N[C@@H](CCCCN)C(=O)NCCCCN [22.23] (H-K[Dab(3S-OH)][Dab(3S-OH)]G[dOrn]PHKAK-{NH(CH2)4NH2})", "measurement.target": "N-type calcium channels (Cav2.2) (Rattus norvegicus (Rat), UniProt Q02294)", "reported.result": "< 30 nM"}

In the following, a different compound is considered.
Name the reported IC50 value associated with the compound C[C@H](N)C(=O)N[C@H](C(=O)N[C@H](C(=O)NCC(=O)N[C@H](CCCN)C(=O)N1CCC[C@H]1C(=O)N[C@@H](Cc1cnc[nH]1)C(=O)N[C@@H](CCCCN)C(=O)N/C(=C\CCNC(=N)N)C(=O)N[C@@H](CCCCN)C(=O)NCCCCN)[C@@H](O)CN)[C@@H](O)CN [22.16] (H-A[Dab(3S-OH)][Dab(3S-OH)]G[dOrn]PHK[ΔZArg]K-{NH(CH2)4NH2})
< 30 nM
